meta.source: patent US20210230570

Overview of reported K0.5-mut/K0.5-wt across a group of proteins:
molecular target: plasma purified human antithrombin III (AT-III) in complex with full-length unfractionated heparin (UFH)

| Protein | Unit abbrev | Comparison sign | K0.5-mut/K0.5-wt |
| --- | --- | --- | --- |
| FIXa D104N/K106S/N260S/R318Y/R338E/R403E/E410N (protein) chain 1: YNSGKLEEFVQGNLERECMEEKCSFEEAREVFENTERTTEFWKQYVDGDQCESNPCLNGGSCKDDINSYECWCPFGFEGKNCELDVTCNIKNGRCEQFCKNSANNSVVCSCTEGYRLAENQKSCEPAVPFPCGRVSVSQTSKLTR chain 2: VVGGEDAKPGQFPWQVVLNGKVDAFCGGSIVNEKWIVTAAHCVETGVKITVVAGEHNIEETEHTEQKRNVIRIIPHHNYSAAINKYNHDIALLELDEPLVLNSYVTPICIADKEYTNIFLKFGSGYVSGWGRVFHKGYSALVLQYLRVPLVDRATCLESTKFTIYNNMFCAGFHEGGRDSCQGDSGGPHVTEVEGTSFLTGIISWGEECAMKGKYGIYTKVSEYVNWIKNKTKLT | fold | > | 517 |
| FIXa Y155F/N260S/R318Y/R338E/R403E/E410N (protein) chain 1: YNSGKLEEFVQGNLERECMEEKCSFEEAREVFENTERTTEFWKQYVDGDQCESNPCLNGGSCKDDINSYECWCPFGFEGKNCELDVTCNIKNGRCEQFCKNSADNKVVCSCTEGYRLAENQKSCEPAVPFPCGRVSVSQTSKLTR chain 2: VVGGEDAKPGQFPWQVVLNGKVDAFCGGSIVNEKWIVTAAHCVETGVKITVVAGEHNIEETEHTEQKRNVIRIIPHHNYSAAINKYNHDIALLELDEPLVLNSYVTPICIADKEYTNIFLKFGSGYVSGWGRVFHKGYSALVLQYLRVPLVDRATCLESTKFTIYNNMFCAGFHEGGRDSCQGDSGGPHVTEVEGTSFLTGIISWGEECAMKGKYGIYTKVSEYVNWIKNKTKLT | fold | = | 501 |
